Please respond with reported IC50 for every item in the list.
# study-target: GSK3α (GST-full length GSK3α) (Homo sapiens (Human))
# Sequence (P49840 whole entry): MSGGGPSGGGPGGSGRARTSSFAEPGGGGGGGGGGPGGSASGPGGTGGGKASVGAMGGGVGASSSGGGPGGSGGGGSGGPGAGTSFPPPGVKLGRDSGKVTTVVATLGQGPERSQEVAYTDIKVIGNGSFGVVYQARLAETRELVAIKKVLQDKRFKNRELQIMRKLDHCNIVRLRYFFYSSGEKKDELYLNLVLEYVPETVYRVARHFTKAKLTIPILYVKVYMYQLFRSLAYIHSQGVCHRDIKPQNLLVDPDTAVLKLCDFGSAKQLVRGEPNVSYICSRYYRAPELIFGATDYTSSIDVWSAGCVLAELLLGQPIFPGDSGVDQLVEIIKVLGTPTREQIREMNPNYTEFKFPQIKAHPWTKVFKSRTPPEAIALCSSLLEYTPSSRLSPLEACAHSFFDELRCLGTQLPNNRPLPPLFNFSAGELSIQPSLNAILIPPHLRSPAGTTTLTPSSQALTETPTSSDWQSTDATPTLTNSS
# experimental-protocol: GSK3α TR-FRET kinase assay
# Assay type: biochemical
# condition-parameters: 1 nM GSK3α, 4 μM ATP, 30 minute preincubation, Table 16; read-out: GSK3-A TR-FRET BIOCHEMICAL (TR-FRET)

// Cn1cc(S(=O)(=O)N2CCC3(CC2)C2=C(CC(C)(C)CC2=O)Nc2n[nH]cc23)cn1 [Compound 901467] : IC50 value = ≤ 100 nM

// Cn1cc(S(=O)(=O)N2CCC3(CC2)C2=C(CC(C)(C)CC2=O)Nc2n[nH]cc23)nn1 [Compound 947898] : IC50 value = ≤ 100 nM

// CC1(C)CC(=O)C2=C(C1)Nc1n[nH]cc1[C@@]21CCN(S(=O)(=O)CC2CC2)C1 [Compound 951724] : IC50 value = ≤ 100 nM

// CCC1(c2cccc(-c3ccncc3C)c2)C2=C(CC(C)(C)CC2=O)Nc2n[nH]c(C(F)(F)F)c21 (stereo not drawn) [Compound 945527] : IC50 value = ≤ 100 nM

// CCc1ncc(S(=O)(=O)N2CCC3(CC2)C2=C(CC(C)(C)CC2=O)Nc2n[nH]cc23)s1 [Compound 947252] : IC50 value = ≤ 100 nM

// CC1(C)CC(=O)C2=C(C1)Nc1n[nH]cc1[C@@]21CO[C@@H](C2CC2)C1 [Compound 913442] : IC50 value = 100 to 1000 nM

// CC[C@@]1(c2ccccc2)C2=C(C[C@]3(CCN(C)C3=O)CC2=O)Nc2n[nH]cc21 [Compound 949759] : IC50 value = > 5000 nM

// CCC1(c2cccc(-c3cnn(C)c3)c2)C2=C(Nc3n[nH]cc31)C(F)C(C)(C)CC2=O (stereo not drawn) [Compound 957504] : IC50 value = 100 to 1000 nM

// CCC1(c2cccc(C3CN(C(C)=O)C3)c2)C2=C(CC(C)(C)CC2=O)Nc2n[nH]cc21 (stereo not drawn) [Compound 949131] : IC50 value = 100 to 1000 nM

// CC1(C)CC(=O)C2=C(C1)Nc1n[nH]cc1C21CCC(S(C)(=O)=O)CC1 (stereo not drawn) [Compound 913356] : IC50 value = ≤ 100 nM

// COc1ccc(S(=O)(=O)N2CCC3(CC2)C2=C(CC(C)(C)CC2=O)Nc2n[nH]cc23)cc1C [Compound 945680] : IC50 value = ≤ 100 nM

// CC1(C)CC(=O)C2=C(C1)Nc1n[nH]cc1C21CCN(S(=O)(=O)C2CC2)CC1 [Compound 901470] : IC50 value = ≤ 100 nM

// CC1(C)CC(=O)C2=C(C1)Nc1n[nH]cc1C21CCN(S(=O)(=O)c2ccc(F)c(Cl)c2)CC1 [Compound 948117] : IC50 value = ≤ 100 nM

// CC1(C(F)(F)F)CC(=O)C2=C(C1)Nc1n[nH]cc1C21CCOCC1 (stereo not drawn) [Compound 901458] : IC50 value = 100 to 1000 nM

// CC1(C)CC(=O)C2=C(C1)Nc1n[nH]cc1C21CCN(S(=O)(=O)c2cnc3ccccc3c2)CC1 [Compound 947462] : IC50 value = ≤ 100 nM

// Cc1[nH]nc2c1C1(CCCC1)C1=C(CC(C)(C)CC1=O)N2 [Compound 786072] : IC50 value = ≤ 100 nM

// CC(C)Oc1ccc(S(=O)(=O)N2CCC3(CC2)C2=C(CC(C)(C)CC2=O)Nc2n[nH]cc23)cc1 [Compound 945673] : IC50 value = ≤ 100 nM

// COC(=O)C1(c2ccccc2)CC2(C1)C1=C(CC(C)(C)CC1=O)Nc1n[nH]cc12 (stereo not drawn) [Compound 942366] : IC50 value = ≤ 100 nM

// Cc1cnccc1[C@H]1CC[C@@]2(CC1)C1=C(CC(C)(C)CC1=O)Nc1n[nH]cc12 [Compound 949318] : IC50 value = 100 to 1000 nM

// CCC1(c2cccc(N(C)c3cc(C)ccn3)c2)C2=C(CC(C)(C)CC2=O)Nc2n[nH]cc21 (stereo not drawn) [Compound 943537] : IC50 value = ≤ 100 nM

// CC1(C)CC(=O)C2=C(C1)Nc1n[nH]cc1C21CCN(S(=O)(=O)c2ccc(OC(F)F)cc2)CC1 [Compound 947246] : IC50 value = ≤ 100 nM

// CC1(C)CC(=O)C2=C(C1)Nc1n[nH]cc1[C@]21CCN(S(C)(=O)=O)C1 [Compound 942432] : IC50 value = ≤ 100 nM

// CC1(C)CC(=O)C2=C(C1)Nc1n[nH]cc1C21CC(C(F)(F)F)C1 (stereo not drawn) [Compound 874527] : IC50 value = ≤ 100 nM

// C[C@H]1CC[C@@]2(C1)C1=C(CC(C)(C)CC1=O)Nc1n[nH]cc12 [Compound 897751] : IC50 value = ≤ 100 nM

// CCC1(c2cccc(-c3ccncc3F)c2)C2=C(CC(C)(C)CC2=O)Nc2n[nH]cc21 (stereo not drawn) [Compound 943518] : IC50 value = ≤ 100 nM

// CC1(C)CC(=O)C2=C(C1)Nc1n[nH]cc1C21CCN(S(=O)(=O)c2cc(F)ccc2F)CC1 [Compound 948121] : IC50 value = ≤ 100 nM

// CC1(C)CC(=O)C2=C(Nc3n[nH]cc3C23CCCCC3)[C@@H]1F [Compound 951705] : IC50 value = ≤ 100 nM

// CC1(C)CC(=O)C2=C(C1)Nc1n[nH]cc1C21CN(CC(F)F)C1 [Compound 912073] : IC50 value = 100 to 1000 nM

// CC1(C)CC(=O)C2=C(C1)Nc1n[nH]cc1C21CN(S(=O)(=O)C2CCCCC2)C1 [Compound 918275] : IC50 value = ≤ 100 nM

// CC1(C)CC2=C(C(=O)[C@@H]1F)C1(CCOCC1)c1c[nH]nc1N2 [Compound 883835] : IC50 value = 100 to 1000 nM
